Molecular target: HER4 (ErbB4) (Homo sapiens)
Sequence (Q15303 26-1308): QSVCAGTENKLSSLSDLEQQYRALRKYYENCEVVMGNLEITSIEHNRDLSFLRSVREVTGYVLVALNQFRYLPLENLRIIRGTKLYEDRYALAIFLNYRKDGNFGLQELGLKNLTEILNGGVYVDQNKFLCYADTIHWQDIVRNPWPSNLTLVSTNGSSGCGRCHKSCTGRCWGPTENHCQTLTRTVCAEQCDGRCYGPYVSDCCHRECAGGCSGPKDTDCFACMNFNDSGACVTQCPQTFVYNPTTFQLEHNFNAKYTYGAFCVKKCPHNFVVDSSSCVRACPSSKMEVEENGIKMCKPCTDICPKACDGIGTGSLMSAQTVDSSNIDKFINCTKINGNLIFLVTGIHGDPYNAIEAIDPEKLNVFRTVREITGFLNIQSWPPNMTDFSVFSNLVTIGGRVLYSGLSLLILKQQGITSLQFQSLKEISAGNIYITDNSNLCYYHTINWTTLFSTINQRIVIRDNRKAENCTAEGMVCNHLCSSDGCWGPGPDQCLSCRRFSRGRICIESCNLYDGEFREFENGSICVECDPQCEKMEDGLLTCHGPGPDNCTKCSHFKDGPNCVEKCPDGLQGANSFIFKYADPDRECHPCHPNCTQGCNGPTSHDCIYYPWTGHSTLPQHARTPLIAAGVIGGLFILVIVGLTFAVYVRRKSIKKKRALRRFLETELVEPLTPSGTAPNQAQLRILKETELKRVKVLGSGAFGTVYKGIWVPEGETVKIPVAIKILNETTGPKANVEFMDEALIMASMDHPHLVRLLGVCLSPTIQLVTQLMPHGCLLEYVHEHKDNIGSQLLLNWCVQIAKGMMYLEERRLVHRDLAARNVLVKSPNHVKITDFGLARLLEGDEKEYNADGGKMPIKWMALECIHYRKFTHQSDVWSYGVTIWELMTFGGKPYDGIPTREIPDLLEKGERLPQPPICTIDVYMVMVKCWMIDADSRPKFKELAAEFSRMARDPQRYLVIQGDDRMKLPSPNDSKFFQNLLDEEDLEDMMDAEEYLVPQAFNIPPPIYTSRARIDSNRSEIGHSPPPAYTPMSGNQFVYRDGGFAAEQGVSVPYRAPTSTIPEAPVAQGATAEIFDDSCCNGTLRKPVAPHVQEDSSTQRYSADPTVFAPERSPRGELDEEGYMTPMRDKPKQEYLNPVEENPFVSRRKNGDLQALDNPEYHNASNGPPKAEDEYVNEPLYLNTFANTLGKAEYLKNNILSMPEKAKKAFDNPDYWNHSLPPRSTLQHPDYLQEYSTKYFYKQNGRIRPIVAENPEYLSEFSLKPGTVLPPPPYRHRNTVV
pIC50: −log10 of the molar value.

| smiles text | pIC50 |
| --- | --- |
| C=CC(=O)N1[C@@H]2CC[C@H]1C[C@H](Oc1cc3c(Nc4ccc(Cl)c(Cl)c4F)ncnc3cc1OCCO)C2 | 8.22 |
| C=CC(=O)N1[C@@H]2CC[C@H]1C[C@H](Oc1cc3c(Nc4ccc(F)c(Cl)c4)ncnc3cc1OC)C2 | 8.70 |
| C=CC(=O)N1[C@@H]2CC[C@H]1C[C@H](Oc1cc3c(Nc4cccc(Cl)c4F)ncnc3cc1OC)C2 | 8.52 |
| C=CC(=O)N1[C@@H]2CC[C@H]1C[C@H](Oc1cc3c(Nc4ccc(Cl)c(Cl)c4F)ncnc3cc1OCC(F)(F)F)C2 | 8.00 |

###

Tested on: OE21 cell
Test: inhibitory activity on cell proliferation (Cell-Titer-Glo), OE21
Format: cell-based
Details: Homo sapiens, OE21, 72 h, incubation for 3 days
// reported IC50 per item

| smiles text | IC50, nM |
| --- | --- |
| C=CC(=O)N1[C@@H]2CC[C@H]1C[C@H](Oc1cc3c(Nc4ccc(Cl)c(Cl)c4F)ncnc3cc1OC)C2 | 0.47 |
| C=CC(=O)N1[C@@H]2CC[C@H]1C[C@H](Oc1cc3c(Nc4ccc(F)c(Cl)c4F)ncnc3cc1OC)C2 | 0.27 |
| C=CC(=O)N1[C@@H]2CC[C@H]1C[C@H](Nc1cc3c(Nc4ccc(F)c(Cl)c4F)ncnc3cc1OC)C2 | 0.17 |
| C=CC(=O)N1[C@@H]2CC[C@H]1C[C@H](Nc1cc3c(Nc4ccc(Cl)c(Cl)c4F)ncnc3cc1OC)C2 | 0.52 |

###

Attribute: pIC50
Molecular target: HER2 (ErbB2) (Homo sapiens, UniProt P04626)
Sequence (P04626 23-1255): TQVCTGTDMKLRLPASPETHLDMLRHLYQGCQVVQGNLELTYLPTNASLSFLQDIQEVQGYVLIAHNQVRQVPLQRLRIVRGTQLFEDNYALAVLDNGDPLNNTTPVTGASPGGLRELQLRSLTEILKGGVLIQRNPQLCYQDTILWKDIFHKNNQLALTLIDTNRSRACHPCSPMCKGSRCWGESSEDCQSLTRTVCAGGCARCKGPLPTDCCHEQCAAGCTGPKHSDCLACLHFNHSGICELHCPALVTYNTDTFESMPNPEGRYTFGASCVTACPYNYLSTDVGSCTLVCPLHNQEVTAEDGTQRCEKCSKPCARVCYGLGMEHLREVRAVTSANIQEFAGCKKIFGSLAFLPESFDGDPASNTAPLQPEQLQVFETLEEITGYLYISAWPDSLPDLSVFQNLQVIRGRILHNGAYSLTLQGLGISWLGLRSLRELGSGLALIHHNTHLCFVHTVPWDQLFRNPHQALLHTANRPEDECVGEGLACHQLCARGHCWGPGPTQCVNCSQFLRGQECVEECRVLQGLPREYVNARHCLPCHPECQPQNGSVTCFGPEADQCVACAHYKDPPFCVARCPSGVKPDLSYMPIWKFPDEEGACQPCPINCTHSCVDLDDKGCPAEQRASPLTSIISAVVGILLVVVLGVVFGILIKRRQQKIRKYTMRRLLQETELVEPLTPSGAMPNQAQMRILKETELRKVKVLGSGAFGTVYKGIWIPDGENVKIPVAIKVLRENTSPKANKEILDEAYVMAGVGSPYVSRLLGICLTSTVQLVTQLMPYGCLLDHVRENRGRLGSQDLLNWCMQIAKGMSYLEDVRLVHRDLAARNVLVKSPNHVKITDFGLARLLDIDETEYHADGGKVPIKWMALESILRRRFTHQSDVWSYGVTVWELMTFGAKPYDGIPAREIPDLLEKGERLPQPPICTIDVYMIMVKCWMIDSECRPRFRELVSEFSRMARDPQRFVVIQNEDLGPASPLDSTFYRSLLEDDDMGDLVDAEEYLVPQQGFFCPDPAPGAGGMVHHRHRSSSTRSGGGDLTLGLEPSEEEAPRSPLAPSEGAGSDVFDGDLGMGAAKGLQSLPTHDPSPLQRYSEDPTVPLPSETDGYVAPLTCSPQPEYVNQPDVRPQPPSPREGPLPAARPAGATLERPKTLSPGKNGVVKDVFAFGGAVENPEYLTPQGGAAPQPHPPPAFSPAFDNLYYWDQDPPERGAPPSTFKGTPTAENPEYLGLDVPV
pIC50: −log10 of the molar value.

| smiles text | pIC50 |
| --- | --- |
| C=CC(=O)N1C[C@H]2C[C@@H](C1)[C@H]2Oc1cc2c(Nc3ccc(Cl)c(Cl)c3F)ncnc2cc1OCCO | 8.10 |
| C=CC(=O)N1[C@@H]2CC[C@H]1C[C@H](Oc1cc3c(Nc4ccc(Cl)c(Cl)c4F)ncnc3cc1OCCC(C)(C)O)C2 | 8.15 |
| C=CC(=O)N1C[C@H]2C[C@@H](C1)[C@H]2Oc1cc2c(Nc3ccc(Cl)c(Cl)c3F)ncnc2cc1OC | 8.52 |
| C=CC(=O)N1[C@@H]2CC[C@H]1C[C@H](Nc1cc3c(Nc4ccc(F)c(Cl)c4F)ncnc3cc1OC)C2 | 7.96 |

###

Target: CYP2D6 (Homo sapiens, UniProt P10635)
Sequence (P10635 whole entry): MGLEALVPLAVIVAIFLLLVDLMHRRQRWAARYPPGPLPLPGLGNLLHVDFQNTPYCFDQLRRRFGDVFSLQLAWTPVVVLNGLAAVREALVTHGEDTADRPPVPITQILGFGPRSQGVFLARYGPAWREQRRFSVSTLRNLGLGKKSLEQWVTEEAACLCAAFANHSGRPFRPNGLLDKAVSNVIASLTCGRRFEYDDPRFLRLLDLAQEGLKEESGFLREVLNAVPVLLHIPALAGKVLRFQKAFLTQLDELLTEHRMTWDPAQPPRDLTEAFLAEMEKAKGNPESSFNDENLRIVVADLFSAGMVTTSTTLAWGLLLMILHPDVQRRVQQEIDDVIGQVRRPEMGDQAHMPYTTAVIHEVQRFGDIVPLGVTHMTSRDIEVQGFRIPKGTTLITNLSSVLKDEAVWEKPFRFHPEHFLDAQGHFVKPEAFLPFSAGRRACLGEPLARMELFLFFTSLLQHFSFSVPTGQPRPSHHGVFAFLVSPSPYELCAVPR
Listed next: entries and their corresponding IC50.
quantity: IC50 (µM)

| molecule | measurement unit | obs value |
| --- | --- | --- |
| C=CC(=O)N1CCC(Oc2cc3c(Nc4ccc(Cl)c(Cl)c4F)ncnc3cc2OC)CC1 [Poziotinib, reference compound] | µM | 1 |
| C=CC(=O)N1[C@@H]2CC[C@H]1C[C@H](Nc1cc3c(Nc4ccc(Cl)c(Cl)c4F)ncnc3cc1OC)C2 | µM | 6 |

###

Target: HER2 (ErbB2) (Homo sapiens, UniProt P04626)
Decide using IC50 alone. Strictly below 6 nM: rule met. Equal to or above 6 nM: rule not met.

| smiles text | class name |
| --- | --- |
| C=CC(=O)N1[C@@H]2CC[C@H]1C[C@H](Oc1cc3c(Nc4ccc(Cl)c(Cl)c4F)ncnc3cc1O[C@@H]1CCOC1)C2 | rule met |
| C=CC(=O)N1[C@@H]2CC[C@H]1C[C@H](Oc1cc3c(Nc4ccc(Cl)c(Cl)c4)ncnc3cc1OC)C2 | rule met |
| C=CC(=O)N1[C@@H]2CC[C@H]1C[C@H](Oc1cc3c(Nc4ccc(Cl)c(Cl)c4F)ncnc3cc1OC)C2 | rule met |
| C=CC(=O)N1[C@@H]2CC[C@H]1C[C@H](Oc1cc3c(Nc4ccc(Cl)c(Cl)c4F)ncnc3cc1OCC(=O)NC)C2 | rule met |
| C=CC(=O)N1[C@@H]2CC[C@H]1C[C@@H](Oc1cc3c(Nc4ccc(Cl)c(Cl)c4F)ncnc3cc1OC)C2 | rule not met |
| C=CC(=O)N1[C@@H]2CC[C@H]1C[C@H](Oc1cc3c(Nc4ccc(Cl)c(Cl)c4F)ncnc3cc1OCC)C2 | rule met |
| C=CC(=O)N1C[C@H]2C[C@@H](C1)[C@H]2Oc1cc2c(Nc3ccc(F)c(Cl)c3)ncnc2cc1OC | rule met |
| C=CC(=O)N1[C@@H]2CC[C@H]1C[C@H](Oc1cc3c(Nc4ccc(Cl)c(Cl)c4F)ncnc3cc1OCC(F)(F)F)C2 | rule not met |
| C=CC(=O)N1C[C@H]2C[C@@H](C1)[C@H]2Oc1cc2c(Nc3cccc(Cl)c3F)ncnc2cc1OC | rule not met |
| C=CC(=O)N1[C@@H]2CC[C@H]1C[C@H](Oc1cc3c(Nc4ccc(Cl)c(Cl)c4F)ncnc3cc1OCCCO)C2 | rule met |
| C=CC(=O)N1C[C@H]2C[C@@H](C1)[C@H]2Nc1cc2c(Nc3ccc(Cl)c(Cl)c3F)ncnc2cc1OC | rule not met |
| C=CC(=O)N1C[C@H]2C[C@@H](C1)[C@H]2Oc1cc2c(Nc3ccc(OC(F)(F)F)c(Cl)c3)ncnc2cc1OC | rule met |
